Numbers sourced from ChEMBL document CHEMBL1155342.

Test system: Mus musculus
method-notes: Antinociceptive activity in po dosed mouse assessed as inhibition of acetic acid-induced abdominal constrictions
Assay type: functional
test-conditions: Abdomen
measurement-kind: ED50 (µmol/kg)
Answer in µmol/kg, number only, no unit symbol.

COc1ccc(C(=O)n2nc(-c3ccccc3)cc2C)cc1    5.1
COc1ccc(C(=O)N/N=C/c2ccccc2)cc1    9.2
COc1ccc2c(=O)n(/N=C/c3ccccc3)cnc2c1    4.2
COc1ccc2c(c1)c(CC(=O)O)c(C)n2C(=O)c1ccc(Cl)cc1    56.2

Note to self: ED50 recorded for COc1ccc(C(=O)N(C)/N=C/c2ccccc2)cc1 was 5.9
